target: human Claudin18.2 (human); assay: cell-based or functional assay
parameter.measured: CDC % Relative activity (%)
Answer with a number only, understood to be in %.

234B9D4 (antibody, V domains shown) VH: EIQLQQSGPDLMKPGSSVKISCTASGYSFTSYYIHWVKQSHGKTLEWIGYIDPFNGGTRYNQKFEGKAALTVDKSSTTAYMHLTSLTSDDSAVYYCASLRFFTYWGQGTLVTVSA VL: DIVMTQSPSSLTVTAGEKVTMTCKSSQSLLNSGNQENYLTWYQQKPGQPPKLLISRASTRQSGVPDRFTGSGSGTDFTLTISSVQAEDLAVYYCQNDYSYPLTFGAGTKLELK ... 485
186F7E10 (antibody, V domains shown) VH: EVMLVESGGGLVKPGGSLKLSCAASRFTLNSYAMSWIRQTPEKKLEWVATITSGVSHTYYFDSVKGRFTISRDTAKNTLNLQMNSLRSEDTAVYYCARLYYGNSLDYWGQGTSVTVSS VL: DIVMTQSPSSLTVTAGEKVTVSCKSSQSLLNSGNQKNYLTWYQQKPGQPPKLLIYWASTRESGVPDRFTGSGSGTDFTLTISSVQSEDLAVYYCQNNYIYPLTFGAGTTLELK ... 124
406F11G8 (antibody, V domains shown) VH: DVQLVESGGGLVQPGGSRKLSCAASGFTFSSFGMHWVRQAPEKGLEWVAYISSGSSPIYYADTVKGRFTISRDNSKNTLFLQMTSLRSEDTAMYFCARIYYGNSFAYWGQGTLVTVSA VL: DIVMTQSPSSLTVTAGEKVAMSCKSSQTLLNSGNQKNYLTWYQQKPGQPPKLLIYWASTRESGVPDRFTGSGSGTDFTLTISSVQAEDLAVYYCQNAYYYPLTFGSGTKLELK ... 101

Could you tell me which CDC % Relative activity is on file for 406G3C4 (antibody, V domains shown) VH: EIQLQQSGPELMKPGASVRISCKASGYSFISYYIYWVKQSHGKGLEWIGYIDPFNGNTNYNQKFKGKATLTVDRSSSTAYIHLNSLTSEDSAVYYCAIVNGYGRGAMDYWGQGTSVTVSS VL: QIVLTQSPAIMSASPGEKVTMTCSASSSISYMHWYQQKSGTSPKRWIYDTSKLASGVPARFSGSGSGTSYSLTISSMEAEDAATYYCQQWSSNPLTFGDGTKLELK ?
136

Could you tell me which CDC % Relative activity is on file for 407D8G1 (antibody, V domains shown) VH: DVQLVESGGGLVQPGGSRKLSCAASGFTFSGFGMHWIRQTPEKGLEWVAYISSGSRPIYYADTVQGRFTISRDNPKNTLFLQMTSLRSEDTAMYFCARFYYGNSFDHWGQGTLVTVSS VL: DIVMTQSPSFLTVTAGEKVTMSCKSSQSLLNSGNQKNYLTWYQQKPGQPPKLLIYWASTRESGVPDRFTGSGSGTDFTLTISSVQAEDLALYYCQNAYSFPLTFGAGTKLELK ?
849

Could you tell me which CDC % Relative activity is on file for 407H12E6 (antibody, V domains shown) VH: DVQLVESGGGLVQPGGSRKLSCAASGFTVSSFGMHWVRQAPEKGLEWVAYISSGSSPIYYADTVKGRFTISRDNPKNTLFLQMTSLRSEDTAIYFCARFYYGNSFDHWGQGTLVTVSA VL: DIVMTQSPSSLTVTTGEKVTMSCKSSQSLLNSGNQKNYLTWYQQKPGQSPKLLIYWASTRESGVPDRFTGSGSGTDFTLTISSVQTEDLAVYFCQNNYFFPLTFGAGTKLELK ?
143

Could you tell me which CDC % Relative activity is on file for 392C2F10 (antibody, V domains shown) VH: EVQLQQSGPELVKPGASMKISCKASGYSFTGYTMNWVKQSLGKNLEWIGLINPFNGGTTYNQKFKGKATLTVDKSSSTAYMELLSLTSDDSAVYYCTRGDYWGQGTTLTVSS VL: DIVMTQSPSSLTVTAGEKVTMSCKSSQSLLNSGNQKNYLTWYQQKPGQPPKLLIYWASTRESGVPDRFAGSGSGTDFTLTISSVQAEDLAVYYCQSDYSYPTFGAGTKLELK ?
5.43

Could you tell me which CDC % Relative activity is on file for 250F4G1 (antibody, V domains shown) VH: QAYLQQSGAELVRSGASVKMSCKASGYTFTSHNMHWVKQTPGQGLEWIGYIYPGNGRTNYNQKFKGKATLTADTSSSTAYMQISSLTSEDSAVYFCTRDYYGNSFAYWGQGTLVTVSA VL: DIVMTQSPSSLTEKVGERVSMSCKSSQSLFNSGNQKNYLTWYQQKPGQPPKLLIYWASTRESGVPDRFTGSGSGTDFTLTISSVQAEDLAVYYCQNDYWYPFTFGAGTKLELK ?
112

Could you tell me which CDC % Relative activity is on file for 267B2C5 (antibody, V domains shown) VH: QVQLKESGPGLVAPSQSLAITCTVSGFSLTTYGVSWVRQPPGKGLEWLGVIWGDGSTHYHSALISRLSIRKDNSKSQVFLKVNSLQTDDTATYYCGKPGRGNAMDYWGQGTSVTVSS VL: DIVMTQSPSSLTVTAGEKVTMSCKSSQSLLNSGNQKNYLTWYQQKPGQSPKLLIYWASTRESGVPDRFTGSGSGTDFTLTISSVQAEDLAVYYCQNDYIYPLTFGGGTTLELK ?
142

Could you tell me which CDC % Relative activity is on file for 273F3D4 (antibody, V domains shown) VH: QVQLKESGPGLVAPSQSLSITCTVSGFALTTYGVSWVRQPPGKGLEWLGVIWGDGSTHYHSALISRLSIRKDNSKSQVFLKLNSLQTDDTATYYCAKPGRGNAMDYWGQGTSVTVSS VL: DIVMSQSPSSLTVTAGEKVTMSCKSSQSLLNSGNQKNYLTWYQQKPGQSPKLLIYWASTRESGVPDRFTGSGSGTDFTLTISSMQAEDLAVYYCQNDYIYPLTFGAGTMLELK ?
105
